From: patent US20210198277A1

# tgt: EHMT1 (Homo sapiens)
# Sequence (Q9H9B1 1-1298): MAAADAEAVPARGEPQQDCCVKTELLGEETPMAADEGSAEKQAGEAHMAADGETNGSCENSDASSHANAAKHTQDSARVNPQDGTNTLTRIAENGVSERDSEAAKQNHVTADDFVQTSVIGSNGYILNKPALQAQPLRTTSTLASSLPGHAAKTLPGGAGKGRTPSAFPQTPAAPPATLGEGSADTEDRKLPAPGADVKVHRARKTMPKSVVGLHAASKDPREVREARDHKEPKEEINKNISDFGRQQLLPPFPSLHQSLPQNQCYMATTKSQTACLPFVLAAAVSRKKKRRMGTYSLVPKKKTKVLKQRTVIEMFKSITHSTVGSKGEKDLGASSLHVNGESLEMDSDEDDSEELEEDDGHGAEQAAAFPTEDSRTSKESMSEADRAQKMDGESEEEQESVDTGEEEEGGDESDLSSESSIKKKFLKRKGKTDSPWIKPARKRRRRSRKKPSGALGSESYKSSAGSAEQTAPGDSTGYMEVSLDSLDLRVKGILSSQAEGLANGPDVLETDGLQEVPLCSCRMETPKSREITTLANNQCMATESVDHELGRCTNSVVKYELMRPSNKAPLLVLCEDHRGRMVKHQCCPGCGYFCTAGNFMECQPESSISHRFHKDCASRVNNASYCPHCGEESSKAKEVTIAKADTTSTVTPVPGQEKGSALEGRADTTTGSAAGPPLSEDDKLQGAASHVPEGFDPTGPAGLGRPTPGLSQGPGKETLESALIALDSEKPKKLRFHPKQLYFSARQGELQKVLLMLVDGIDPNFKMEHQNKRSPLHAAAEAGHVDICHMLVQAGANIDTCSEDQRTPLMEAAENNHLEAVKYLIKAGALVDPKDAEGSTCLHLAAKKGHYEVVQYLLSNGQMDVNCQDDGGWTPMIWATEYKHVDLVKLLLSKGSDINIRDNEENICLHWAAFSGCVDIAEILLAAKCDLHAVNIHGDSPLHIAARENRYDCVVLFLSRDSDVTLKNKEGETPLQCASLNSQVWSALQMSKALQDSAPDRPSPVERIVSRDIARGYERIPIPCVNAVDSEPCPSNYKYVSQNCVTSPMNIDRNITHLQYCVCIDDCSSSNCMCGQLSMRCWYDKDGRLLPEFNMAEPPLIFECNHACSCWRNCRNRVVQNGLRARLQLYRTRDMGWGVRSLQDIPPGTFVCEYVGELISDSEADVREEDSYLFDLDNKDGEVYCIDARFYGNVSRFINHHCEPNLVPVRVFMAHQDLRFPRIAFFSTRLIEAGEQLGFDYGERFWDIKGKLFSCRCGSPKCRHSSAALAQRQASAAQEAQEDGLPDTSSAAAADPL
# protocol: EHMT1 enzyme assay on peptide substrate (EHMT1 PEP)
# Type: biochemical
# assaySetup: Table VI; read-out: EHMT1 PEP IC50
pIC50: −log10 of the molar value.
Measured pIC50 of individual entries

Task item: Entry under review: CNc1nc(C2CCCCN2C)c2cc(OC)c(OCCCN3CCCC3)cc2n1 (centres unmarked) [Compound 747] . Reported pIC50?
Reply: 6.00 to 7.00
